- experimental_protocol: pharmacokinetics in CD-1 mice
- Format: in vivo
- experimental_parameters: male, plasma; CD-1 mouse, iv 2 mg/kg; read-out: Vss
measured_parameter: Vd (L/kg)

Examples from the recorded data:
- CS(=O)(=O)N1CCN(C(=O)c2cnc3ccc(Cl)cc3c2-c2ccc(C3(C#N)CC3)cc2)CC1: 1.14
- CS(=O)(=O)N1CCN(C(=O)c2cnc3ccc(Cl)cc3c2N2CCC(C#N)(c3ccccc3)CC2)CC1: 1.39
- CN(C)C(=O)N1CCN(C(=O)c2cnc3ccc(F)cc3c2-c2ccc(C3(C#N)CC3)cc2)CC1: 2.2

1: CN(C)C(=O)N1CCN(C(=O)c2cnc3ccc(F)cc3c2N2CCC(C#N)(c3ccccc3)CC2)CC1
2: N#CC1(c2ccccc2)CCN(c2c(C(=O)N3CCN(C(=O)C4CC4)CC3)cnc3ccc(F)cc23)CC1
Which entry has a larger number for Vd, 1 or 2 ? // caller expects the label of the chosen entry
2
